The following binders are shown together with reported Kd values.
- tgt: T1, human 4Ig-B7H3 (B7H3-4Ig-His) (human, UniProt Q5ZPR3 29-466)
- T1 construct: Recombinant His-tagged protein immobilised on a CM5 chip; also called 41g-B7H3; human 4Ig-B7-H3 (dominant isoform); not shown: His tag
- T1 sequence: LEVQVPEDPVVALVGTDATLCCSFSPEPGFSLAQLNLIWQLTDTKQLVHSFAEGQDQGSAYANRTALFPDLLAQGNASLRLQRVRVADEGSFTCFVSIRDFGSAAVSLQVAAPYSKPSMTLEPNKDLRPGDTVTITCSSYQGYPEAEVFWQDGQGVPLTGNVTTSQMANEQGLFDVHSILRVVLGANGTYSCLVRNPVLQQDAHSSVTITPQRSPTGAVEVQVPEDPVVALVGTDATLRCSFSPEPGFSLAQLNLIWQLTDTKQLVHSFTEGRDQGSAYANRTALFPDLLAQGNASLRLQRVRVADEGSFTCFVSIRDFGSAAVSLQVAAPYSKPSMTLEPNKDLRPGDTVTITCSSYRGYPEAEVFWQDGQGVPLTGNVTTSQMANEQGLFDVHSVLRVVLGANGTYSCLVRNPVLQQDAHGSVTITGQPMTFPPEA
- method description: SPR, Biacore T200, 4Ig-B7H3-His on CM5 chip, 1:1 fit
- Procedure: Both human B7H3 41g and 21g proteins were dissolved in PBS (Phosphate-Buffered Saline) to make 0.1 mg/ml stock solution and stored in −80° C. B7-H3 proteins were immobilized onto the CM5 sensor chip using Amine Coupling Kit. Both proteins were diluted to 10 ug/ml with 10 mM Sodium acetate, pH 5.0. […] A blank immobilized surface was used as a control Binding Assays: [0143] 1. […] Following completion of the association phase, dissociation was monitored in HBS-EP buffer for 10 min at the same flow rate. […]
Lab book: enter the figure in nM, no units written.

Worked cases, answers included:
>>> data_value("8H9 antibody conjugated with p-SCN-Bn-CHX-A″-DTPA, CAR 3.6 (antibody, mouse IgG1, kappa, V domains shown, p-SCN-Bn-CHX-A″-DTPA conjugated, CAR 3.6 per antibody; sites not stated, Chelator conjugate, not metal-labelled) VH: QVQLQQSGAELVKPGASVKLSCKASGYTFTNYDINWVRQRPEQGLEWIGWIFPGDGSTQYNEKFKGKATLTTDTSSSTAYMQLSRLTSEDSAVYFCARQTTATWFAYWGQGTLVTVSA VL: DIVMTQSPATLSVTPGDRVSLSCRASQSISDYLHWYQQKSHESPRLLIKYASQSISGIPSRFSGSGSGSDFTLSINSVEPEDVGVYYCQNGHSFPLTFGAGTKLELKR")
26.9
>>> data_value("8H9 antibody conjugated with p-SCN-Bn-DOTA, CAR 11.7 (antibody, mouse IgG1, kappa, V domains shown, p-SCN-Bn-DOTA conjugated, CAR 11.7 per antibody; sites not stated, Chelator conjugate, not metal-labelled) VH: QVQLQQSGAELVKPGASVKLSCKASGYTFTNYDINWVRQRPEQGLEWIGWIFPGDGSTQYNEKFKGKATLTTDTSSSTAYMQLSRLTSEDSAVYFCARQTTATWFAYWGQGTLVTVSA VL: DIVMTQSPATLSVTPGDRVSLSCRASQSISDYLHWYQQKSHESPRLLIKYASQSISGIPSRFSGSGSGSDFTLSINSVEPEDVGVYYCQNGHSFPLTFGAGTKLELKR")
18.9

For the next question, use this binder.
Q: Given 8H9 antibody conjugated with p-SCN-Bn-DOTA, CAR 0.8 (antibody, mouse IgG1, kappa, V domains shown, p-SCN-Bn-DOTA conjugated, CAR 0.8 per antibody; sites not stated, Chelator conjugate, not metal-labelled) VH: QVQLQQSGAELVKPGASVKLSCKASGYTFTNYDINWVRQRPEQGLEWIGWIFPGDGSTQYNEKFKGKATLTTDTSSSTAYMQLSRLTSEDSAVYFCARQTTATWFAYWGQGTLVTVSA VL: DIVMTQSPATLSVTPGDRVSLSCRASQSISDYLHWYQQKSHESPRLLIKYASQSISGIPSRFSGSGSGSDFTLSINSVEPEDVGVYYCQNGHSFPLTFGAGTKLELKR , state its recorded Kd.
Result: 5.76
